Give measured Cmax for each item. Keep answers brief.
# assay_method_text: Cmax in Sprague-Dawley rat at 4 mg/kg, po by LC/MS/MS analysis
# Assay type: ADME, organism-based
# Parameters: dose 4 mg/kg, route oral
# condition_description: in vivo
Answers are plain numbers, in ng/mL.

Known results for compounds:
CN1CCN(c2ccc(Nc3cc(-c4cccc(-n5ccc6cc(C7CC7)cc(F)c6c5=O)c4CO)cn(C)c3=O)nc2)CC1	134
CN(C)C(=O)N1CC=C(c2cc3c(-c4cccc(-n5ccc6cc(C7CC7)cc(F)c6c5=O)c4CO)ncnc3[nH]2)CC1	422

For the next question, use this compound.
Asked: Requested field: Cmax. Item: CN(C)C(=O)N1CC=C(c2cc3c(-c4cccc(-n5ccc6cc(C7CC7)cc(F)c6c5=O)c4CO)ccnc3[nH]2)CC1
Given back: 739
